System: DU-145
Reported GI50 values for the following compounds.
Kindly report the value followed by its unit.

Examples with answers:
INSERT INTO results (compound, value_observed) VALUES
  ('C/C=C\[C@H](C)[C@H]1OC1(C)[C@@H](O[Si](C)(C)C(C)(C)C)[C@@H](COC(C)=O)C(=O)[C@H](COC(C)=O)[C@H](O)CC(=O)CC (some centres unmarked)', '4.99 µM'),
  ('C=C(C(=O)[C@H](COC(C)=O)[C@H](O)C1(C)O[C@@H]1[C@@H](C)/C=C\C)[C@@H](O)CC(=O)CC (some centres unmarked)', '3.66 µM'),
  ('C/C=C\[C@H](C)[C@H]1OC1(C)[C@@H](O[Si](C)(C)C(C)(C)C)[C@@H](CO[Si](C)(C)C(C)(C)C)C(=O)[C@H](CO[Si](C)(C)C(C)(C)C)[C@@H](CC(=O)CC)O[Si](C)(C)C(C)(C)C (some centres unmarked) [Compound 19b]', '12 µM'),
  ('C/C=C\[C@H](C)[C@H]1O[C@@]1(C)[C@@H](O)[C@@H](COC(C)=O)C(=O)[C@H](CO)[C@@H](O)CC(=O)CC', '0.0815 µM'),
  ('C/C=C\[C@H](C)[C@H]1OC1(C)[C@@H](O[Si](C)(C)C(C)(C)C)[C@@H](COC(C)=O)C(=O)[C@H](COC(C)=O)[C@@H](CC(=O)CC)OC(C)=O (some centres unmarked)', '16.3 µM');

In plain terms, C/C=C\[C@H](C)[C@H]1OC1(C)[C@@H](O[Si](C)(C)C(C)(C)C)[C@@H](CO[Si](C)(C)C(C)(C)C)C(=O)[C@H](CO[Si](C)(C)C(C)(C)C)[C@H](CC(=O)CC)O[Si](C)(C)C(C)(C)C (some centres unmarked) [Compound 19a] has a documented GI50 of 12.1 µM

In plain terms, C/C=C\[C@H](C)[C@H]1OC1(C)[C@@H](O[Si](C)(C)C(C)(C)C)[C@@H](COC(C)=O)C(=O)[C@H](CO)[C@H](O)CC(=O)CC (some centres unmarked) has a documented GI50 of 4.99 µM

In plain terms, C/C=C\[C@H](C)[C@H]1OC1(C)[C@@H](O[Si](C)(C)C(C)(C)C)[C@@H](CO)C(=O)[C@@H](CO)[C@H](O)CC(=O)CC (some centres unmarked) [31b + 31d] has a documented GI50 of 20.5 µM

In plain terms, C/C=C\[C@H](C)[C@H]1OC1(C)[C@@H](O[Si](C)(C)C(C)(C)C)[C@@H](COC(C)=O)C(=O)[C@H](CO)[C@@H](O)CC(=O)CC (some centres unmarked) has a documented GI50 of 9.65 µM

In plain terms, `C/C=C\[C@H](C)[C@H]1O[C@@]1(C)[C@@H](O)[C@@H](CO)C(=O)[C@@H](CO)[C@@H](O)CC(=O)CC` has a documented GI50 of 0.55 µM

In plain terms, C/C=C\[C@H](C)[C@H]1OC1(C)[C@@H](O[Si](C)(C)C(C)(C)C)[C@@H](CO[Si](C)(C)C(C)(C)C)C(=O)[C@@H](CO[Si](C)(C)C(C)(C)C)[C@H](CC(=O)CC)O[Si](C)(C)C(C)(C)C (some centres unmarked) [Compound 30a] has a documented GI50 of 12.1 µM
